Cited source for all entries: patent US10640506B2

Items are presented alongside their recorded pIC50.
Target Under Test: JAK2 (a.a. 828-1132) (Homo sapiens, UniProt O60674)
Construct: JAK2 (a.a. 828-1132); His tag (N)
Sequence (O60674 828-1132): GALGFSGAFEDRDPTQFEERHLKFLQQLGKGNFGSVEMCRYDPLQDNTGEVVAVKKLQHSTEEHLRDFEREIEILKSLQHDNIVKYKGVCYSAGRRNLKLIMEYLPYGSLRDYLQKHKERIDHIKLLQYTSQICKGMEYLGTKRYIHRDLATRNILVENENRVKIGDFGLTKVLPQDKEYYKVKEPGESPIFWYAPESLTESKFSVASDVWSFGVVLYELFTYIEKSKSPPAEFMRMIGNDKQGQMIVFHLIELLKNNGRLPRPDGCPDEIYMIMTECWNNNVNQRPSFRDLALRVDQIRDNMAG
Assay Info: In vitro JAK kinase assay (HTRF, phosphorylation of biotinylated peptide), JAK2
Format: biochemical
Protocol Conditions: Table F; 1 mM ATP
pIC50: −log10 of the molar value.

In [3]: df
Out[3]:
                                   molecule      reported
0  N#CC[C@]1(n2cc(-c3ncnc4[nH]ccc34)cn2)C[C@H](N2CCC(Oc3cc(CN4CCC(F)(F)C4)cc(C(F)(F)F)n3)CC2)C1 [Example 160]        < 7.00
1  N#CC[C@]1(n2cc(-c3ncnc4[nH]ccc34)cn2)C[C@H](N2CCN(C(=O)NC(C(F)(F)F)C(F)(F)F)CC2)C1 [Example 152]        < 7.00
2  N#CC[C@]1(n2cc(-c3ncnc4[nH]ccc34)cn2)C[C@H](N2CCN(C(=O)N3CCC[C@H]3C(F)(F)F)CC2)C1 [Example 117]        < 7.00
3  Cc1cc(OC2CCN([C@H]3C[C@@](CC#N)(n4cc(-c5ncnc6[nH]ccc56)cn4)C3)CC2)nc(C(F)(F)F)c1 [Example 151]  7.00 to 7.60
4  CCN(CC)Cc1cc(OC2CCN([C@H]3C[C@](CC#N)(n4cc(-c5ncnc6[nH]ccc56)cn4)C3)CC2)cc(C(F)(F)F)c1 [Example 139]        < 7.00
5  CN(CC(F)(F)F)C(=O)N1CCN([C@H]2C[C@](CC#N)(n3cc(-c4ncnc5[nH]ccc45)cn3)C2)CC1 [Example 84]        < 7.00
6  CN(C)Cc1cc(C(=O)N2CCN([C@H]3C[C@](CC#N)(n4cc(-c5ncnc6[nH]ccc56)cn4)C3)CC2)nc(C(F)(F)F)n1 [Example 52]  7.00 to 7.60
7  CC[C@H](NC(=O)N1CCN([C@H]2C[C@](CC#N)(n3cc(-c4ncnc5[nH]ccc45)cn3)C2)CC1)C(F)(F)F [Example 115]        < 7.00

Continue with the molecule presented below.
Hi! What's the reported pIC50 for CCNCc1cc(OC2CCN([C@H]3C[C@](CC#N)(n4cc(-c5ncnc6[nH]ccc56)cn4)C3)CC2)nc(C(F)(F)F)c1 [Example 131] on JAK2 (a.a. 828-1132) (Homo sapiens, UniProt O60674)?
7.00 to 7.60
